// provenance: paper PMC5253108

System: HepG2 liver cells
Assay: In vitro cytotoxicity, Cell-Titer Glo viability, HepG2
Type: cell-based
Conditions: 48 hours
recorded endpoint: Toxicity in HEPG2 (Liver) LD50

Solved entries (count: 5):
- compound: "COc1ccc2c(c1)C(=O)N1CCC[C@H]1c1c(C(=O)O)ncn1-2"
  target desc: "HepG2 liver cells"
  Toxicity in HEPG2 (Liver) LD50: ">400 µM"
- compound: "COc1ccc2c(c1)C(=O)N1CCC[C@H]1c1c(C(=O)NC(C)(C)C)ncn1-2"
  target desc: "HepG2 liver cells"
  Toxicity in HEPG2 (Liver) LD50: ">400 µM"
- compound: "[2H]C([2H])([2H])Oc1ccc2c(c1)C(=O)N1CCC[C@H]1c1c(C(=O)OC(C)(C)C)ncn1-2"
  target desc: "HepG2 liver cells"
  Toxicity in HEPG2 (Liver) LD50: ">400 µM"
- compound: "[2H]C([2H])([2H])Oc1ccc2c(c1)C(=O)N1CCC[C@H]1c1c(C(=O)OCC(C)C)ncn1-2 [Compound 11a]"
  target desc: "HepG2 liver cells"
  Toxicity in HEPG2 (Liver) LD50: ">200 µM"
- compound: "COc1ccc2c(c1)C(=O)N1CCC[C@H]1c1c(C(=O)OC(C)(C)C)ncn1-2"
  target desc: "HepG2 liver cells"
  Toxicity in HEPG2 (Liver) LD50: ">400 µM"

I need Toxicity in HEPG2 (Liver) LD50 for every entry listed below, if you could help.
1. CCNC(=O)c1ncn2c1[C@@H]1CCCN1C(=O)c1cc(OC)ccc1-2
2. CNC(=O)c1ncn2c1[C@@H]1CCCN1C(=O)c1cc(OC)ccc1-2
3. COc1ccc2c(c1)C(=O)N1CCC[C@H]1c1c(C(=O)OCC(C)C)ncn1-2

[">400 µM", ">400 µM", ">200 µM"]

----------
Exercise: for every item that follows, state its recorded Toxicity in HEK293 (Kidney) LD50.
Test system: HEK293 kidney cells
Assay type: cell-based
Settings: 48 hours, Cell-Titer Glo

For orientation, consider the following solved cases.
- compound: "[2H]C([2H])([2H])Oc1ccc2c(c1)C(=O)N1CCC[C@H]1c1c(C(=O)OC(C)(C)C)ncn1-2"
  Toxicity in HEK293 (Kidney) LD50: ">100 µM"
- compound: "[2H]C([2H])([2H])Oc1ccc2c(c1)C(=O)N1CCC[C@H]1c1c(C(=O)OC(C(F)(F)F)C(F)(F)F)ncn1-2 [Compound 12a]"
  Toxicity in HEK293 (Kidney) LD50: ">200 µM"

Value sought for every listed compound: Toxicity in HEK293 (Kidney) LD50.
1. [2H]C([2H])([2H])Oc1ccc2c(c1)C(=O)N1CCC[C@H]1c1c(C(=O)O)ncn1-2
2. [2H]C([2H])([2H])Oc1ccc2c(c1)C(=O)N1CCC[C@H]1c1c(C(=O)OCC)ncn1-2

1. >400 µM
2. >400 µM

----------
Test system: BEAS2B lung epithelial cells
Test: In vitro cytotoxicity, Cell-Titer Glo viability, BEAS2B
Format: cell-based
Conditions: 48 hours
recorded endpoint: Toxicity in BEAS 2B (Lung) LD50

These recorded examples may help you get a feel for the data.
- compound: "[2H]C([2H])([2H])Oc1ccc2c(c1)C(=O)N1CCC[C@H]1c1c(C(=O)NC)ncn1-2 [Compound 15a]"
  recorded endpoint: "Toxicity in BEAS 2B (Lung) LD50"
  readout value: ">400 µM"
- compound: "COC(=O)c1ncn2c1[C@@H]1CCCN1C(=O)c1cc(OC)ccc1-2 [Compound 10]"
  recorded endpoint: "Toxicity in BEAS 2B (Lung) LD50"
  readout value: ">400 µM"

Now take the following compound into account.
Hi! What's the reported Toxicity in BEAS 2B (Lung) LD50 for CNC(=O)c1ncn2c1[C@@H]1CCCN1C(=O)c1cc(OC)ccc1-2 [Compound 15] on BEAS2B lung epithelial cells?
>400 µM
